The reported numbers originate from paper PMC4120239.

- target-or-test-system: Dsg3-Fc recombinant fusion protein (Homo sapiens, UniProt P32926)
- Sequence (P32926 50-615): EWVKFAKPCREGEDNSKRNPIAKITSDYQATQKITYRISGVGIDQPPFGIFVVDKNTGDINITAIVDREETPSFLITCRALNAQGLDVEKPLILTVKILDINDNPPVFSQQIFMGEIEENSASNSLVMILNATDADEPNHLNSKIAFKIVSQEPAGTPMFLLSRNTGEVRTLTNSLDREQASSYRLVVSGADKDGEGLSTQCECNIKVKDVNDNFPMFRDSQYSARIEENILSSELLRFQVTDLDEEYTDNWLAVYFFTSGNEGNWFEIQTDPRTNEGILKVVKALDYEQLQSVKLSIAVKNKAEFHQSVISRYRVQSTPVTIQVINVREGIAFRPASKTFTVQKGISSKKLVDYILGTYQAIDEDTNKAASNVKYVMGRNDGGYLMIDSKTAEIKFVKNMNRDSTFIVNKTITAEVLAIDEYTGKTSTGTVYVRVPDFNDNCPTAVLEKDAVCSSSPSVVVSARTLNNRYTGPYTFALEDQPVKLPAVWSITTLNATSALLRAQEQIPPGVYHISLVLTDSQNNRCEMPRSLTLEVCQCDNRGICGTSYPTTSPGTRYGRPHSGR
- method: SPR
measurement-kind: pKd
One number for each entry, as −log10 of the molar value.

PVE4-8 scFv mAb, somatically mutated (scFv, V domains shown) VH: QVQLVQSWAEVKKPGASVKFSCKASGYTFTAYYMHWVRQAPGQGLEWMGIINPSGGIATYAEKFQGRVTMTRDTSTTTVYMELSSLRSQDAAVYYCARDRQGFDLDVWGQGTTVTVSS VL: ELVLTQPPSASGSPGQSVTISCTGTSSDVGGYNYVSWYQQHPGKAPKLMIYEVNKRPSGVPDRFSGSRSGNTASLTVSGLQAEDEADYYCSSYAGSNNLVFGGGTKVTVL: 8.62

Go through the list and state pKd for each entry.
1. 4.2 scFv mAb, somatically mutated (scFv, V domains shown) VH: EVQLVQSGAEVKKPGASLKVSCQASGYIFTSHYIHWVRQAPGQGLEWMGIINPSGGKTTFAQKFQGRVTMTRDTSTRTVYMEMSGLRSEDTAVYYCARDQSLGMDVWGQGTTVIVSS VL: ELALTQPPSVSGSPGQSITISCTGTSSDVGGYNYVSWYQQHPGKAPKLMIYEVSKRPSGVSNRFSGSKSGNTASLTISGLQAEDEADYYCSSYAGSNNWVFGGGTKLTVL
2. 3.2 scFv mAb, somatically mutated (scFv, V domains shown) VH: QVQLVQSGAEVKKPGASVKVSCKASGYTFTSYYMHWVRQAPGHGLEWMGIINPSGGIANYAQKFQGRVTMTRDTSTSTVYMDLSSLTSEDTAVYYCARDLGGFDFDYWGQGTLVTVSS VL: ELALTQPPSVSGSPGQSVTISCTGTSSDIGRYNFVSWYQQHPGKAPKLMIYEIYKRPSGVPDRFSGSRSGNTASLTVSGLQAEDEADYYCSSYVGNNDLVFGGGTQLTVL

Completion:
1: 9.74; 2: 8.85
